Just for reference, ChEMBL document CHEMBL1147071 is where these values come from.

- Target under test: UniProtKB Q8ST54
- Assay procedure: Inhibition of Trypanosoma cruzi hexokinase in presence of ATP, 2 mM D-glucose and 3 mM MgCl2
# Ki per entry
Unit µM implied. Number only.

Example cases with answers are listed next.
O=P(O)(O)C(O)(Cc1ccncc1)P(=O)(O)O    4.3
O=P(O)(O)C(Nc1cccc(Br)c1)P(=O)(O)O    1.2

Please look at the following compound next.
Field request: Ki | item: `CCn1c2ccccc2c2cc(NC(P(=O)(O)O)P(=O)(O)O)ccc21` 2.8

###

- Target under test: Hexokinase (Trypanosoma cruzi)
- Assay procedure: Inhibition of Trypanosoma cruzi hexokinase in presence of D-glucose, 1 mM ATP and 3 mM MgCl2
Quantity kind: Ki
Give the value; after it, write the unit.

Field request: Ki | item: `O=P(O)(O)C(O)(Cc1ccncc1)P(=O)(O)O` 6 µM

###

- Target under test: Hexokinase (Trypanosoma cruzi, UniProt Q8ST54)
- Sequence (Q8ST54 whole entry): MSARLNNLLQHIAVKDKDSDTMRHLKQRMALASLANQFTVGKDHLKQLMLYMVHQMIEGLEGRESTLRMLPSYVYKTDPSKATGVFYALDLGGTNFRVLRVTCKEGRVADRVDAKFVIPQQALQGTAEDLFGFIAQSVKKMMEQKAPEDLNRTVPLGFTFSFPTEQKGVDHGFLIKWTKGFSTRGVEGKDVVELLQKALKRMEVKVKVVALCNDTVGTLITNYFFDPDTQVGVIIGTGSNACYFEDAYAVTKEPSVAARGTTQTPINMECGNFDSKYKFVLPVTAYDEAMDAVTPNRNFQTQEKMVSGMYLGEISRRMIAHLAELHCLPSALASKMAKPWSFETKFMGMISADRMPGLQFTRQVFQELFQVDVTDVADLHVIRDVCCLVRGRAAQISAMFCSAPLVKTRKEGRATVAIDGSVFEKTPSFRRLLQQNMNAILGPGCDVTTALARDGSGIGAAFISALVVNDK
- Assay procedure: Inhibition of glycosomal Trypanosoma cruzi hexokinase in presence of ATP, 2 mM D-glucose and 3 mM MgCl2
Quantity kind: pKi
A value of pKi is the negative decimal logarithm of a concentration given in moles per litre.

Field request: pKi | item: `CCn1c2ccccc2c2cc(NC(P(=O)(O)O)P(=O)(O)O)ccc21` 5.77

Field request: pKi | item: `O=P(O)(O)C(O)(Cc1ccncc1)P(=O)(O)O` 4.98

###

# IC50 per entry
- Tested on: Trypanosoma cruzi
- Assay procedure: Effect on glucose consumption in digitonin permeablized Trypanosoma cruzi
- Format: functional, organism-based
Unit µM implied. Number only.

Example cases with answers are listed next.
O=P(O)(O)C(O)(Cc1ccncc1)P(=O)(O)O    10.3
CCn1c2ccccc2c2cc(NC(P(=O)(O)O)P(=O)(O)O)ccc21    0.62

Field request: IC50 | item: `O=P(O)(O)C(Nc1cccc(Br)c1)P(=O)(O)O` 1.2

###

- Target under test: Hexokinase (Trypanosoma cruzi)
- Assay procedure: Inhibition of glycosomal Trypanosoma cruzi hexokinase in presence of D-glucose, 1 mM ATP and 3 mM MgCl2
Quantity kind: pKi
A value of pKi is the negative decimal logarithm of a concentration given in moles per litre.

O=P(O)(O)C(O)(Cc1ccncc1)P(=O)(O)O    4.36
O=P(O)(O)C(Nc1cccc(Br)c1)P(=O)(O)O    4.97

Field request: pKi | item: `CCn1c2ccccc2c2cc(NC(P(=O)(O)O)P(=O)(O)O)ccc21` 5.37

###

- System: Trypanosoma cruzi
- Assay procedure: Growth inhibition of Trypanosoma cruzi epimastigotes
- Type: functional, organism-based
# IC50 per entry
Unit µM implied. Number only.

Example cases with answers are listed next.
CCn1c2ccccc2c2cc(NC(P(=O)(O)O)P(=O)(O)O)ccc21    6.4
O=P(O)(O)C(Nc1cccc(Br)c1)P(=O)(O)O    7

Please look at the following molecule next.
Field request: IC50 | item: `O=P(O)(O)C(O)(Cc1ccncc1)P(=O)(O)O` 40.6

###

- Target under test: Hexokinase (Trypanosoma cruzi, UniProt Q8ST54)
- Assay procedure: Inhibition of Trypanosoma cruzi hexokinase in presence of ATP, 2 mM D-glucose and 3 mM MgCl2 by mixed inhibition assay
# pKi per entry
A value of pKi is the negative decimal logarithm of a concentration given in moles per litre.

CCn1c2ccccc2c2cc(NC(P(=O)(O)O)P(=O)(O)O)ccc21    5.77

Field request: pKi | item: `O=P(O)(O)C(O)(Cc1ccncc1)P(=O)(O)O` 5.55

Field request: pKi | item: `O=P(O)(O)C(Nc1cccc(Br)c1)P(=O)(O)O` 6.22
